assay info: Dimensions (size, PDI) of DNPs co-assembled from IAJDs and Luc-mRNA by DLS
Format: physicochemical
condition notes: Table 16; DNPs from IAJD 4 mg/mL and Luc-mRNA 0.10 mg/mL by injection in acetate buffer (10 mM, pH 4.0)
Method: Dynamic Light Scattering (DLS) for the DNPs was performed in buffer with a Malvern Instruments particle sizer (Zetasizer Nano S, Malvern Instruments, UK) equipped with 4 mW He—Ne laser 633 nm and avalanche photodiode positioned at […] to the beam and temperature-controlled cuvette holder. Instrument parameters were determined automatically along with measurement times. Formulation of DNPs Containing mRNA-Luc: IAJDs were dissolved in ethanol with various initial concentrations (5-160 mg/mL). […]
reported property: Size (d, nm)

compound=CCCCCCCCCCCOc1cc(COC(=O)CCCN2CCN(CCO)CC2)cc(OCCCCCCCC)c1 reported_property="Size (d, nm)" recorded_value=181
compound=CCCCCCCCCCCCOc1cc(COC(=O)c2cc(OCCOCCOCCCC(=O)CCCN3CCCCC3)c(OCCOCCOCCOCc3ccccc3)c(OCCOCCOCCOC(=O)CCCN3CCCCC3)c2)cc(OCCCCCCCCCCCC)c1 reported_property="Size (d, nm)" recorded_value=111
compound=CCCCCCCCCCCCCCCOc1cc(COC(=O)CCCN2CCN(C)CC2)cc(OCCCCCCCCCCCCC)c1 reported_property="Size (d, nm)" recorded_value=194
compound=CCCCCCCCCCCCCCOc1cc(COC(=O)c2cc(OCCOCCOCCCC(=O)CCCN3CCCCC3)c(OCCOCCOCCOCc3ccccc3)c(OCCOCCOCCOC(=O)CCCN3CCCCC3)c2)cc(OCCCCCCCCCCC)c1 reported_property="Size (d, nm)" recorded_value=75
compound=CCCCCCCCCCCCCCCCCCOc1cc(COC(=O)CCCN2CCN(CCO)CC2)cc(OCCCCCCCCCCCCC)c1 reported_property="Size (d, nm)" recorded_value=344

[a] CCCCCCCCCCCCCCCOc1cc(COC(=O)CCCN2CCN(CCO)CC2)cc(OCCCCCCCCCCCCCC)c1
[b] CCCCCCCCCCCCCCCOc1cc(COC(=O)CCCN2CCN(C)CC2)cc(OCCCCCCCCCCC)c1
[c] CCCCCCCCCCCCCCCOc1cc(COC(=O)CCCN2CCN(CCO)CC2)cc(OCC(CC)CCCC)c1 (centres unmarked)
Ask: Falling order of Size (d, nm), please. Return the labels ranked in the requested order, please.
Result: a, c, b
(a: 363 nm, c: 149 nm, b: 104 nm)

[I] CCCCCCCCCCCCCCCCCOc1cc(COC(=O)CCCN2CCN(CCO)CC2)cc(OCCCCCCCCCCCCCCC)c1
[II] CCCCCCCCCCCOc1cc(COC(=O)CCCN2CCN(CCO)CC2)cc(OCCCCCCCCCC)c1
Ask: Returns: the label, I or II , whose recorded Size (d, nm) is the lower number. Answer format: the label of the selected item.
Result: II

[P] CCCCCCCCCCCCCCOc1cc(COC(=O)CCCN2CCN(CCO)CC2)cc(OCCCCCCCCCCC)c1
[Q] CCCCCCCCCCCCCCCOc1cc(COC(=O)CCCN2CCN(C)CC2)cc(OCCCCCCCCCCCCCC)c1
Ask: Which item exceeds the other in Size (d, nm), P or Q ? Indicate your choice by writing its label.
Result: P
(P: 255 nm, Q: 144 nm)

----------
assay info: Dimensions (size, PDI) of DNPs co-assembled from IAJDs and Luc-mRNA by DLS
Format: physicochemical
condition notes: Table 17; DNPs used in vivo, IAJD 4 mg/mL, Luc-mRNA 0.10 mg/mL, acetate pH 4.0
reported property: Size (d, nm)

Examples from the recorded data:
molecule="CCCCCCCCCCCCCCCCOc1cc(COC(=O)CCCN2CCN(CCO)CC2)cc(OCCCCCCCCCCCCCCC)c1 [IAJD 150]" recorded_value=285
molecule="CCCCCCCCCCCCCCCOc1cc(COC(=O)CCCN2CCN(CCO)CC2)cc(OCCCCCCCCCCC)c1 [IAJD 119]" recorded_value=163
molecule="CCCCCCCCCCCCCCOc1cc(COC(=O)CCCN2CCN(C)CC2)cc(OCCCCCCCCCCC)c1 [IAJD 105]" recorded_value=94
molecule="CCCCCCCCCCCCCCCCCCOc1cc(COC(=O)CCCN2CCN(CCO)CC2)cc(OCCCCCCCCCCC)c1 [IAJD 128]" recorded_value=291
molecule="CCCCCCCCCCCCCOc1cc(COC(=O)CCCN2CCN(CCO)CC2)cc(OCCCCCCCCCCC)c1 [IAJD 117]" recorded_value=255

[P] CCCCCCCCCCCCCCCCCCOc1cc(COC(=O)CCCN2CCN(CCO)CC2)cc(OCCCCCCCCCCCCC)c1 [IAJD 178]
[Q] CCCCCCCCCCCCCCCCOc1cc(COC(=O)CCCN2CCN(C)CC2)cc(OCCCCCCCCCCCCCCC)c1 [IAJD 149]
Ask: Which has the smaller recorded Size (d, nm), P or Q ? Please indicate the selected item by its label.
Result: Q

----------
assay info: Dimensions (size, PDI) of DNPs co-assembled from IAJDs and Luc-mRNA by DLS
Assay type: physicochemical
condition notes: Table 13; DNPs, IAJD 4 mg/mL + Luc-mRNA 0.10 mg/mL, acetate buffer pH 4.0
reported property: PDI

molecule=CCCCCCCCOc1cc(COC(=O)CCCN2CCN(C)CC2)cc(OCCCCCCCC)c1 recorded_value=0.342
molecule=CCCCCCCCCCCCCCOc1cc(CNC(=O)CCCN2CCN(C)CC2)cc(OCCCCCCCCCCCCCC)c1 recorded_value=0.334
molecule="CCCCC(CC)COc1ccc(COC(=O)CCCN2CCN(C)CC2)cc1OCC(CC)CCCC (stereo not shown)" recorded_value=0.275
molecule=CCCCCCCCCCCCCCCCOc1cc(COC(=O)CCCN2CCN(C)CC2)cc(OCCCCCCCCCCCC)c1 recorded_value=0.275

----------
assay info: Dimensions (size, PDI) of DNPs co-assembled from IAJDs and Luc-mRNA by DLS
Type: physicochemical
condition notes: Table 12; DNPs, IAJD 4 mg/mL + Luc-mRNA 0.10 mg/mL, acetate buffer 10 mM pH 4.0
reported property: PDI

compound="CCCCCCCCCCCCOCC(COCCCCCCCCCCCC)(COCCCCCCCCCCCC)COC(=O)CCCN1CCN(CCO)CC1 [IAJD 83]" reported_property=PDI recorded_value=0.430

[I] CCCCCCCCCCCCOc1ccc(COC(=O)CCCN2CCN(C)CC2)cc1OCCCCCCCCCCCC [IAJD 78]
[II] CCCCC(CC)COc1cc(COC(=O)CCCN2CCN(CCO)CC2)cc(OCC(CC)CCCC)c1OCC(CC)CCCC (stereo not shown) [IAJD 97]
Ask: Lab note: check whether I or II has the lower measured PDI. # reply format: chosen label
Result: II

----------
assay info: Dimensions (size, PDI) of DNPs co-assembled from IAJDs and Luc-mRNA by DLS
Format: physicochemical
condition notes: Table 14; DNPs, IAJD 4 mg/mL + Luc-mRNA 0.10 mg/mL, acetate buffer pH 4.0
Description: Dynamic Light Scattering (DLS) for the DNPs was performed in buffer with a Malvern Instruments particle sizer (Zetasizer Nano S, Malvern Instruments, UK) equipped with 4 mW He—Ne laser 633 nm and avalanche photodiode positioned at […] to the beam and temperature-controlled cuvette holder. Instrument parameters were determined automatically along with measurement times. Formulation of DNPs Containing mRNA-Luc: IAJDs were dissolved in ethanol with various initial concentrations (5-160 mg/mL). […]
reported property: PDI

compound=CCCCCCCCCCCCCCOc1cc(CNC(=O)CCCN2CCN(C)CC2)cc(OCCCCCCCCCCCCCC)c1 reported_property=PDI recorded_value=0.334
compound="CCCCC(CC)COc1cc(COC(=O)CCCN2CCN(C)CC2)cc(OCC(CC)CCCC)c1OCC(CC)CCCC (stereo not shown)" reported_property=PDI recorded_value=0.402
compound="CCCCC(CC)COc1ccc(COC(=O)CCCN2CCN(C)CC2)cc1OCC(CC)CCCC (stereo not shown)" reported_property=PDI recorded_value=0.275
compound=CCCCCCCCCCCCCCOc1cc(COC(=O)CCCN2CCN(C)CC2)cc(OCCCCCCCCCCC)c1 reported_property=PDI recorded_value=0.294

----------
assay info: Dimensions (size, PDI) of DNPs co-assembled from IAJDs and Luc-mRNA by DLS
Format: physicochemical
condition notes: Table 17; DNPs used in vivo, IAJD 4 mg/mL, Luc-mRNA 0.10 mg/mL, acetate pH 4.0
reported property: PDI

compound="CCCCCCCCCCCCOc1cc(COC(=O)c2cc(OCCOCCOCCCC(=O)CCCN3CCCCC3)c(OCCOCCOCCOCc3ccccc3)c(OCCOCCOCCOC(=O)CCCN3CCCCC3)c2)cc(OCCCCCCCCCCCC)c1 [IAJD 110]" reported_property=PDI recorded_value=0.274
compound="CCCCCCCCCCCCCCCOc1cc(COC(=O)CCCN2CCN(C)CC2)cc(OCCCCCCCCCCC)c1 [IAJD 118]" reported_property=PDI recorded_value=0.278
compound="CCCCCCCCCCCCCCCCCCOc1cc(COC(=O)CCCN2CCN(CCO)CC2)cc(OCCCCCCCCCCC)c1 [IAJD 128]" reported_property=PDI recorded_value=0.381
compound="CCCCCCCCCCCCCCCOc1cc(COC(=O)CCCN2CCN(C)CC2)cc(OCCCCCCCCCC)c1 [IAJD 141]" reported_property=PDI recorded_value=0.313
compound="CCCCCCCCCCCCCCCOc1cc(COC(=O)CCCN2CCN(C)CC2)cc(OCCCCCCCCCCCCCC)c1 [IAJD 147]" reported_property=PDI recorded_value=0.287
compound="CCCCCCCCCCCCCCCOc1cc(COC(=O)CCCN2CCN(CCO)CC2)cc(OCCCCCCCCCCCCC)c1 [IAJD 146]" reported_property=PDI recorded_value=0.276
compound="CCCCCCCCCCCOc1cc(COC(=O)CCCN2CCN(CCO)CC2)cc(OCCCCCCCCC)c1 [IAJD 122]" reported_property=PDI recorded_value=0.337
